These data points were gathered from patent US12447153B2.

Here, each record is paired with measured pIC50 data.
Study System: ErbB2 with Exon 20 YVMA insertion (HER2-YVMA) (Homo sapiens (Human), UniProt P04626, INS775YVMA)
Sequence (P04626 other isoform, or with tags, fused parts or gaps ins YVMA behind 775): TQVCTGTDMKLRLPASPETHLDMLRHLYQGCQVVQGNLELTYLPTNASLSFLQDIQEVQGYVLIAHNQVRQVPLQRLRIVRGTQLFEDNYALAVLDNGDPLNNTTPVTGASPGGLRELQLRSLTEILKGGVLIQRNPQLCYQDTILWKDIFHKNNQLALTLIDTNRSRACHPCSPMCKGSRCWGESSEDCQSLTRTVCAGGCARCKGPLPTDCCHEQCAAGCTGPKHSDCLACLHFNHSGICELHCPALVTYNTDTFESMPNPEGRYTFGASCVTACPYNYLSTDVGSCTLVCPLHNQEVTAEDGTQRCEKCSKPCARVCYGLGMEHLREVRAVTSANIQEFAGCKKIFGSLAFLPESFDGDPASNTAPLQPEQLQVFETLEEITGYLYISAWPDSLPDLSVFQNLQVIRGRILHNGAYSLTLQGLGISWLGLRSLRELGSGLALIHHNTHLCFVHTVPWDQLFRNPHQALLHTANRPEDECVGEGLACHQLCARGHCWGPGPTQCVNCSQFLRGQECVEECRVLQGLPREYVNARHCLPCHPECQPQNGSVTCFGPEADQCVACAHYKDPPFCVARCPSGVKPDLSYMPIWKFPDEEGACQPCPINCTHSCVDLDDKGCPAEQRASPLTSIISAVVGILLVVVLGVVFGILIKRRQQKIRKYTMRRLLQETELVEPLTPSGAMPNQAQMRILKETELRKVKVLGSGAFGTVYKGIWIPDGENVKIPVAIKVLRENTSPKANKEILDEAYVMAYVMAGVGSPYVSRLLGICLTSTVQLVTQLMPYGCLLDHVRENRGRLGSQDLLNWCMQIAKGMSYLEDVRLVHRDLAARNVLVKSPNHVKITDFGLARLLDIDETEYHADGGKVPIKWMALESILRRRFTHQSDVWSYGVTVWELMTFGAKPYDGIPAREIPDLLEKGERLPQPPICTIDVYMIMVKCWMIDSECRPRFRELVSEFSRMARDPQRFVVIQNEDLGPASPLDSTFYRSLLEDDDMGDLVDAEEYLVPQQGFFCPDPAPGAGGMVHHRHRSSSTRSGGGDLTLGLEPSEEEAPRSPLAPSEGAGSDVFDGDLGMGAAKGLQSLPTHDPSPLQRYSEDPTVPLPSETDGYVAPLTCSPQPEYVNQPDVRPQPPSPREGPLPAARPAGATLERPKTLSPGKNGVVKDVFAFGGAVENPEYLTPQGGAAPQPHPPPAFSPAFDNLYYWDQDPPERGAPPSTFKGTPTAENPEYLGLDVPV
Assay Overview: Cellular Phosphorylation Assay, Assay 4 (constitutive ErbB2 phosphorylation, NIH 3T3 cells)
Format: cell-based
Test Parameters: ErbB2 YVMA phosphorylation
Note on units: pIC50 is unitless, being -log10 of a concentration expressed in mol/L.

Consider the worked cases shown below.
Compound: C=CC(=O)N1[C@@H]2CC[C@H]1[C@H](c1ccc3ncnc(Nc4ccc(Oc5ccn6ncnc6c5)c(C)c4)c3n1)C2 (racemic) [Example 220]
pIC50: 7.73

Compound: C=CC(=O)N1CCN(c2ccc3ncnc(Nc4ccc(Oc5cnc6c(c5)ncn6C)c(C)c4)c3n2)CC1
pIC50: 8.30

Compound: C=CC(=O)N1C2CC1CN(c1ccc3ncnc(Nc4cc(Cl)c(Oc5ccn6ncnc6c5)cc4F)c3n1)C2
pIC50: 7.25

Compound: C=CC(=O)N1C[C@H]2C[C@@H]1CN(c1ccc3ncnc(Nc4cc(Cl)c(Oc5ccc6c(c5)ncn6C)cc4F)c3n1)C2
pIC50: 7.75

Compound: Cc1c(Oc2ccn3ncnc3c2)ccc(Nc2ncnc3ccc(N4CCN(C#N)C(C)(C)C4)nc23)c1F
pIC50: 6.75

Query: # query: pIC50 of entry C=CC(=O)N1CCN(c2ccc3ncnc(Nc4ccc(Oc5cnc6c(c5)ncn6C)c(Cl)c4)c3n2)CC1(C)C
Reply: 8.06

Query: # query: pIC50 of entry C=CC(=O)N1C2CC1CN(c1ccc3ncnc(Nc4ccc(Oc5ccn6ncnc6c5)c(Cl)c4F)c3n1)C2
Reply: 7.92
